system.name: GLP-1 receptor (human, UniProt P43220 24-463)
assay.overview: cell-based or functional assay
Starred links: 1 amine or outer side, 2 acyl side, 3 side chain; linkers in the order of their positions; H or OH if unused. Non-standard residues stand in square brackets, D forms with d. Groups on a side chain read outwards from the residue. Primed or numbered codes have the meaning given here. No end group written: not given here. *: point of attachment. γGlu = O=C(O)[C@H](CCC(=O)[*:2])N[*:1]; Stearoyl = CCCCCCCCCCCCCCCCCC(=O)*; αMeF = C[C@](N)(Cc1ccccc1)C(=O)O; αMeK = C[C@](N)(CCCCN)C(=O)O; αMeS = C[C@](N)(CO)C(=O)O; PEG2′ = not defined here; Aib = CC(C)(N)C(=O)O
parameter: Primary assay EC50 (cAMP), n1 (pM)

Please review the entries below; each comes with its answer.
{"binder": "H[Aib]EGS[αMeF]TSDV[αMeS]S[αMeF]LEGEAAAEFIK([PEG2′-PEG2′-γGlu-Stearoyl])WVVEGG-NH2 [SEQ ID NO 69]", "unit.of.measurement": "pM", "Primary assay EC50 (cAMP), n1": 66.1}
{"binder": "H[Aib]EGS[αMeF]TSDVSK([PEG2′-PEG2′-γGlu-Stearoyl])YLEGEAA[Aib]E[αMeF]IA[αMeF]VVEGG-NH2 [SEQ ID NO 59]", "unit.of.measurement": "pM", "Primary assay EC50 (cAMP), n1": 243}
{"binder": "H[Aib]EGS[αMeF]TSDV[αMeS]S[αMeF]LEGEAA[Aib]EFIK([PEG2′-PEG2′-γGlu-Stearoyl])WVVEGG-NH2 [SEQ ID NO 67]", "unit.of.measurement": "pM", "Primary assay EC50 (cAMP), n1": 72.1}
{"binder": "HXEGTFTXDVSSYLEGQAAKEFIAWLVKGR (Aib 2; Aib 8; C-terminal amide) [SEQ ID NO 20]", "unit.of.measurement": "pM", "Primary assay EC50 (cAMP), n1": 15000}
{"binder": "H[Aib]EGS[αMeF]TSDV[αMeS]S[αMeF]LEGEAAEEFIK([PEG2′-PEG2′-γGlu-Stearoyl])WVVEGG-NH2 [SEQ ID NO 66]", "unit.of.measurement": "pM", "Primary assay EC50 (cAMP), n1": 203}
{"binder": "H[Aib]EGS[αMeF]TSDVSK([PEG2′-PEG2′-γGlu-Stearoyl])YLEGEAAKE[αMeF]IA[αMeF]VVEGG-NH2 [SEQ ID NO 57]", "unit.of.measurement": "pM", "Primary assay EC50 (cAMP), n1": 140}
{"binder": "H[Aib]EGS[αMeF]TSDV[αMeS]S[αMeF]LEGEAAK([PEG2′-PEG2′-PEG2′-Stearoyl])EFIA[αMeF]VV[αMeK]GG-NH2 [SEQ ID NO 54]", "unit.of.measurement": "pM", "Primary assay EC50 (cAMP), n1": 0.79}
{"binder": "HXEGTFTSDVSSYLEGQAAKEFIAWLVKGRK (Aib 2; K(ε-γE-Palmitoyl) after R30; C-terminal amide) [SEQ ID NO 5]", "unit.of.measurement": "pM", "Primary assay EC50 (cAMP), n1": 7.5}

I. H[Aib]EGS[αMeF]TSDVSK([PEG2′-PEG2′-γGlu-Stearoyl])YLEGEAA[αMeK]E[αMeF]IA[αMeF]VVEGG-NH2 [SEQ ID NO 60]
II. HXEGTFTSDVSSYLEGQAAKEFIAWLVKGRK (Aib 2; K(ε-(PEG)2-(PEG)2-γE-Stearate) after R30; C-terminal amide) [SEQ ID NO 6]
Q: # returns the entry with the larger Primary assay EC50 (cAMP), n1; inputs I and II Select an item and report its label.
Ans: I
(I: 49 pM, II: 4.8 pM)

P. H[Aib]EGS[αMeF]TSDV[αMeS]SYLEGEAAK([PEG2′-PEG2′-γGlu-Stearoyl])E[αMeF]IA[αMeF]VV[αMeK]GG-NH2 [SEQ ID NO 47]
Q. H[Aib]EGS[αMeF]TSDV[αMeS]S[αMeF]LEGEAAK([PEG2′-PEG2′-γGlu-Stearoyl])E[αMeF]IA[αMeF]VVKGG-NH2 [SEQ ID NO 50]
Q: Quick one: lower Primary assay EC50 (cAMP), n1, P or Q ? Select an item and report its label.
Ans: P
(P: 37 pM, Q: 170 pM)

I. H[Aib]EGS[αMeF]TSDVSS[αMeF]LEGEAAK([PEG2′-PEG2′-γGlu-Stearoyl])E[αMeF]IA[αMeF]VVKGG-NH2 [SEQ ID NO 40]
II. H[Aib]EGS[αMeF]TSDV[αMeS]SYLEGEAAK([PEG2′-PEG2′-PEG2′-Stearoyl])E[αMeF]IA[αMeF]VV[αMeK]GG-NH2 [SEQ ID NO 53]
III. H[Aib]EGS[αMeF]TSDVSK([PEG2′-PEG2′-PEG2′-Stearoyl])YLEGEAAEE[αMeF]IA[αMeF]VVEGG-NH2 [SEQ ID NO 62]
IV. H[Aib]EGS[αMeF]TSDV[αMeS]S[αMeF]LEGEAAK([PEG2′-PEG2′-PEG2′-Stearoyl])E[αMeF]IAWVV[αMeK]GG-NH2 [SEQ ID NO 55]
Q: Write the entries in order, lowest recorded Primary assay EC50 (cAMP), n1 first. Sort and list the labels as requested.
Ans: II, IV, III, I

I. H[Aib]EGS[αMeF]TSDV[αMeS]S[αMeF]LEGEAAK([PEG2′-PEG2′-γGlu-Stearoyl])E[αMeF]IA[αMeF]VV[αMeK]GG-NH2 [SEQ ID NO 3]
II. H[Aib]EGS[αMeF]TSDV[αMeS]S[αMeF]LEGEAAK([PEG2′-PEG2′-PEG2′-Stearoyl])E[αMeF]IA[αMeF]VVKGG-NH2 [SEQ ID NO 56]
Q: Quick one: lower Primary assay EC50 (cAMP), n1, I or II ? Select an item and report its label.
Ans: II
(II: 2.9 pM, I: 64 pM)
